Target or system Cocaine esterase (Homo sapiens, UniProt O00748); metric pIC50; compiled from varied reports.
Worth noting: pIC50 values are minus log10 of concentrations stated in mol/L.

Request: Which pIC50 reading was recorded for the compound O=C1C(Cc2ccccc2[N+](=O)[O-])C(c2ccccc2)=NN1c1ccccc1 (centres undefined) ?
Response: 4.96

Request: Which pIC50 reading was recorded for the compound O=C1C(Cc2ccccc2)C(c2ccccc2)=NN1C1CCCCC1 (centres undefined) ?
Response: 5.04

Request: Which pIC50 reading was recorded for the compound C=CCC1C(=O)N(c2ccccc2)N=C1c1ccccc1 (centres undefined) ?
Response: 5.11

Request: Which pIC50 reading was recorded for the compound C[C@H](CC[C@H](O)C(C)(C)O)[C@H]1CC[C@@]2(C)C1=CC=C1[C@]2(C)CC[C@H]2C(C)(C)C(=O)CC[C@]12C ?
Response: 5.34

Request: Which pIC50 reading was recorded for the compound CC1=CC(=O)C[C@@]2(C)[C@H]1CC[C@@]1(C)[C@H]2[C@@H](O)CC2=C([C@H](C)C[C@H](O)[C@@H](O)C(C)(C)O)CC[C@@]21C ?
Response: 5.69

Request: Which pIC50 reading was recorded for the compound CCOC(=O)[C@@]1(C)CC[C@]2(C)CC[C@]3(C)C(=CC(=O)[C@@H]4[C@@]5(C)CC[C@H](OC(=O)CCC(=O)O)C(C)(C)[C@@H]5CC[C@]43C)[C@@H]2C1 ?
Response: 6.18

Request: Which pIC50 reading was recorded for the compound O=C1C(Cc2ccccc2)C(c2ccc(Br)cc2)=NN1c1ccccc1 (centres undefined) ?
Response: 5.21
